- Test system: RAW-Dual (murine macrophage reporter line)
- assay.comment: IRF reporter (Lucia luciferase) activity fold change vs agonist alone; higher = enhanced IRF activity
- condition: modulator concentration 10 µM; agonist: MPLA […]
property: IRF reporter

CC(=O)C1=C(C)OC2(O)c3ccccc3C(=O)C12O (stereo not drawn) :: 0.824
O=C(Nc1ccccn1)c1ccc(OCC2CCCO2)nc1 (stereo not drawn) :: 1.04
Cc1cc(=O)n(-c2ccccc2)n1C :: 1.22
CC1(C)CCC2(C(=O)O)CCC3(C)C(=CCC4C5(C)CCC(O)C(C)(C)C5CCC43C)C2C1 (stereo not drawn) :: 1.24
Cc1nc[nH]c1CN1CCc2c(c3ccccc3n2C)C1=O.Cl :: 1.12
Cc1cc(OCC(O)CN2CCCCC2C)cc(C)c1Cl.Cl (stereo not drawn) :: 1.25
CC(C)OC(=O)c1c(NC(=O)C2CC=CCC2C(=O)O)sc2c1CCCC2 (stereo not drawn) :: 1.14
c1ccc(CCn2c3ccccc3c3nnc(SCCN4CCCCC4)nc32)cc1 :: 1.57
CC(=O)CCc1oc2ccc([N+](=O)[O-])cc2c1-c1ccc(C)o1 :: 0.713
COc1cc(C2C(C(=O)c3ccccc3)=C(O)C(=O)N2c2cccnc2)ccc1O (stereo not drawn) :: 0.785
Br.O=S(=O)(c1ccc(-c2csc(Nc3ccc(F)cc3)n2)cc1)N1CCOCC1 :: 1.55
Nc1ccn([C@H]2CC[C@@H](CO)O2)c(=O)n1 :: 1.02
CN1CCc2c(sc3[nH]c(=S)n(CCc4ccccc4)c(=O)c23)C1 :: 1.39
CNCCc1ccccn1.Cl.Cl :: 1
COCCCC/C(=N\OCCN)c1ccc(C(F)(F)F)cc1.O=C(O)/C=C\C(=O)O :: 1.67
COc1ccc(CC(=O)Nc2ccc(C)c(N3CCCCC3=O)c2)cc1OC :: 1.06
COc1ccc(C2OCC3C(c4ccc(OC)c(OC)c4)OCC23)cc1OC (stereo not drawn) :: 1.21
Cc1cnc(NC(=O)C2=C(O)c3ccccc3S(=O)(=O)N2C)s1 :: 0.987
O=C(NCC1CN(c2ccc(N3CCOCC3=O)cc2)C(=O)O1)c1ccc(Cl)s1 (stereo not drawn) :: 1.03
Cc1c(Cl)cccc1NC(=O)C(Cl)=Cc1ccccc1 :: 1.25
COc1ccc2cc(Br)ccc2c1CC(N)=O :: 0.961
COC(=O)C1=CN(CC2CCCO2)C=C(C(=O)OC)C1c1cccc(Br)c1 (stereo not drawn) :: 1.29
COc1ccc(C(NC(=O)c2ccccc2F)c2ccc(OC)cc2)cc1 :: 1.24

====

- System: RAW-Dual (murine macrophage reporter line)
- assay.comment: viability score (confluency relative to resting cells, overnight) (fraction); higher = more viable, active = viable (0.7 or more)
- condition: modulator concentration 10 µM
// viability score lookup, one value per entry
property: viability score

CCS(=O)(=O)c1ccc(-c2ccc(NC(=O)c3cccc(OC)c3OC)cc2)nn1 :: 0.955
Cc1cc(C)c(NC(=O)COc2ccc(C)cc2C(C)(C)C)c(C)c1 :: 1.01
Cc1c(C)c2c(c(C)c1O)CCC(C)(CCCC(C)CCCC(C)CCCC(C)C)O2 (stereo unspecified) :: 0.987
O=Cc1cn(CCOc2ccc(Cl)cc2)c2ccccc12 :: 0.93
CCOC(=O)C1=C(C)NC(=S)NC1c1ccccc1OCc1ccccc1 (stereo unspecified) :: 1.01
N[C@H]1CONC1=O :: 1.01
